system name: T1, human PD-L1 expressed on 300.19 cells (human, UniProt Q9NZQ7 19-290)
T1 construct: whole, on cells; also called huPD-L1; PD-L1-expressing 300.19 cells
T1 sequence (Q9NZQ7 19-290): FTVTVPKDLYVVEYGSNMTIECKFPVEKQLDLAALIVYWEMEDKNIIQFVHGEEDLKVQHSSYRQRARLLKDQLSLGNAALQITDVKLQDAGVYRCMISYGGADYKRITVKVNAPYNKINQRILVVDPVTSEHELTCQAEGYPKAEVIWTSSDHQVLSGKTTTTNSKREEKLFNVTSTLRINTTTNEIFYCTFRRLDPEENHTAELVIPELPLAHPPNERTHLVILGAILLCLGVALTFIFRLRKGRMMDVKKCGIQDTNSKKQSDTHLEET
experimental protocol: competition FACS against Alexa 488-labeled murine BAP058 on PD-L1-expressing 300.19 cells
observable: Comp. binding (ratio conc. test mAb / conc. labelled murine BAP058 at the IC50)
Form: value (number only, do not type unit).

Study these solved cases before continuing.
Tell me Comp. binding (ratio conc. test mAb / conc. labelled murine BAP058 at the IC50) reported for BAP058-hum16 (antibody, human IgG4 S228P, kappa, V domains shown, Humanized IgG4(S228P)/human kappa mAb expressed in CHO cells) VH: QVQLVQSGAEVKKPGASVKVSCKASGYTFTSYWMYWIRQSPSRGLEWLGRIDPNSGSTKYNEKFKNRFTISRDDSKNTAYLQMNSLKTEDTAVYYCARDYRKGLYAMDYWGQGTTVTVSS VL: EIVLTQSPDFQSVTPKEKVTITCKASQDVGTAVAWYQQKPGQAPRLLIYWASTRHTGVPSRFSGSGSGTEFTLTISSLQPDDFATYYCQQYNSYPLTFGQGTKVEIKR
2.47

Tell me Comp. binding (ratio conc. test mAb / conc. labelled murine BAP058 at the IC50) reported for BAP058-hum11 (antibody, human IgG4 S228P, kappa, V domains shown, Humanized IgG4(S228P)/human kappa mAb expressed in CHO cells) VH: EVQLVQSGAEVKKPGATVKISCKVSGYTFTSYWMYWVRQATGQGLEWMGRIDPNSGSTKYNEKFKNRVTITADKSTSTAYMELSSLRSEDTAVYYCARDYRKGLYAMDYWGQGTTVTVSS VL: DVVMTQSPLSLPVTLGQPASISCKASQDVGTAVAWYQQKPGQAPRLLIYWASTRHTGVPSRFSGSGSGTEFTLTISSLQPDDFATYYCQQYNSYPLTFGQGTKVEIKR
1.3

Tell me Comp. binding (ratio conc. test mAb / conc. labelled murine BAP058 at the IC50) reported for BAP058-hum06 (antibody, human IgG4 S228P, kappa, V domains shown, Humanized IgG4(S228P)/human kappa mAb expressed in CHO cells) VH: EVQLVQSGAEVKKPGESLRISCKGSGYTFTSYWMYWIRQPPGKGLEWIGRIDPNSGSTKYNEKFKNRVTITADKSTSTAYMELSSLRSEDTAVYYCARDYRKGLYAMDYWGQGTTVTVSS VL: EIVLTQSPDFQSVTPKEKVTITCKASQDVGTAVAWYLQKPGQSPQLLIYWASTRHTGVPSRFSGSGSGTDFTFTISSLQPEDIATYYCQQYNSYPLTFGQGTKVEIKR
1.39

New cases:
Tell me Comp. binding (ratio conc. test mAb / conc. labelled murine BAP058 at the IC50) reported for BAP058-hum02 (antibody, human IgG4 S228P, kappa, V domains shown, Humanized IgG4(S228P)/human kappa mAb expressed in CHO cells) VH: QVQLVQSGAEVKKPGASVKVSCKASGYTFTSYWMYWVRQATGQGLEWMGRIDPNSGSTKYNEKFKNRFTISRDDSKNTAYLQMNSLKTEDTAVYYCARDYRKGLYAMDYWGQGTTVTVSS VL: DIQMTQSPSSLSASVGDRVTITCKASQDVGTAVAWYLQKPGQSPQLLIYWASTRHTGVPSRFSGSGSGTDFTLTISSLQPEDFATYYCQQYNSYPLTFGQGTKVEIKR
2.14
